Target: CYP2D6 (Homo sapiens, UniProt P10635)
Construct: studied in liver microsomes of CD-1 mouse, Sprague Dawley rat, Beagle dog, cynomolgus monkey, and human; from tissue; host or cells: liver microsomes
Sequence (P10635 whole entry): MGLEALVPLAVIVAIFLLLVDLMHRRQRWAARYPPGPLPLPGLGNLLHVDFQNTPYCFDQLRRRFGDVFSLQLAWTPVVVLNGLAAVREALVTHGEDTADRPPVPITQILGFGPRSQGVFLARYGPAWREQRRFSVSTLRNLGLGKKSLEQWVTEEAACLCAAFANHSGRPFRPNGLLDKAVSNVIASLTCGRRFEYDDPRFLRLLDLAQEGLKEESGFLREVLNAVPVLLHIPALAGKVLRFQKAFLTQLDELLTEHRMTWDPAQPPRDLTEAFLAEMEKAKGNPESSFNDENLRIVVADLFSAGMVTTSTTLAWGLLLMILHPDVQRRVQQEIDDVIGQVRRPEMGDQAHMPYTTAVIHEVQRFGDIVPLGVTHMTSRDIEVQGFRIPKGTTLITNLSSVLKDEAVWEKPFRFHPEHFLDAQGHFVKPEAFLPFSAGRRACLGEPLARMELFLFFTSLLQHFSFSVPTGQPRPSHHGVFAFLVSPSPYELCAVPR
Test: CYP450 enzyme inhibition in liver microsomes (cocktail probe incubation)
Type: in vitro ADME
Details: species not given, 0.05-50 μM tested
pIC50: −log10 of the molar value.
Attribute Measured: pIC50

- Compound: "CC1(C)C(=O)C(C#N)=C[C@]2(C)C3=CC(=O)[C@@H]4[C@@H]5C[C@@](C)(N6CCCC6=O)CC[C@]5(C)CC[C@@]4(C)[C@]3(C)CC[C@@H]12 [Example 12]"
  pIC50: "< 4.30"
- Compound: "CC1(C)C(=O)C(C#N)=C[C@]2(C)C3=CC(=O)[C@@H]4[C@@H]5C[C@@](C)(N6CCC(O)C6)CC[C@]5(C)CC[C@@]4(C)[C@]3(C)CC[C@@H]12 (stereo partly drawn) [Example 20]"
  pIC50: "< 4.30"

Lab book: pIC50 of Cc1noc([C@@]2(C)CC[C@]3(C)CC[C@]4(C)[C@H](C(=O)C=C5[C@@]6(C)C=C(C#N)C(=O)C(C)(C)[C@@H]6CC[C@]54C)[C@@H]3C2)n1 [Example 15] noted as 4.44

====

Experiment: Pharmacokinetic studies in Sprague Dawley rats (oral gavage and IV)
Format: in vivo
Details: rat, Oral (5 mg/kg), male SD rats, plasma
Classes (Cmax): low: < 40 ng/mL; mid: ≥ 40 ng/mL and < 90 ng/mL; high: ≥ 90 ng/mL

- Compound: "CC1(C)C(=O)C(C#N)=C[C@]2(C)C3=CC(=O)[C@@H]4[C@@H]5C[C@@](C)(N6CCCC6=O)CC[C@]5(C)CC[C@@]4(C)[C@]3(C)CC[C@@H]12 [Example 12]"
  Class: "low"
- Compound: "CC1(C)C(=O)C(C#N)=C[C@]2(C)C3=CC(=O)[C@@H]4[C@@H]5C[C@@](C)(c6nnc(C(=O)NC7CC7)o6)CC[C@]5(C)CC[C@@]4(C)[C@]3(C)CC[C@@H]12 [Example 19]"
  Class: "mid"
- Compound: "CC1(C)C(=O)C(C#N)=C[C@]2(C)C3=CC(=O)[C@@H]4[C@@H]5C[C@@](C)(c6nnc(C(N)=O)o6)CC[C@]5(C)CC[C@@]4(C)[C@]3(C)CC[C@@H]12 [Example 25]"
  Class: "low"
- Compound: "CC1(C)C(=O)C(C#N)=C[C@]2(C)C3=CC(=O)[C@@H]4[C@@H]5C[C@@](C)(C#N)CC[C@]5(C)CC[C@@]4(C)[C@]3(C)CC[C@@H]12 [Example 2]"
  Class: "high"

Quick check: band for CC1(C)C(=O)C(C#N)=C[C@]2(C)C3=CC(=O)[C@@H]4[C@@H]5C[C@@](C)(N6CC(O)C6)CC[C@]5(C)CC[C@@]4(C)[C@]3(C)CC[C@@H]12 [Example 26] mid

Quick check: band for CC(=NC#N)NC[C@]12CCC(C)(C)C[C@H]1[C@H]1C(=O)C=C3[C@@]4(C)C=C(C#N)C(=O)C(C)(C)[C@@H]4CC[C@@]3(C)[C@]1(C)CC2 [Example 4] mid

Quick check: band for CC1(C)C(=O)C(C#N)=C[C@]2(C)C3=CC(=O)[C@@H]4[C@@H]5C[C@@](C)(N6C(=O)CCC6=O)CC[C@]5(C)CC[C@@]4(C)[C@]3(C)CC[C@@H]12 [Example 18] mid

====

Measured half-life at 1 μM accompanies every entry in the list below.
Test: Metabolic stability in monkey liver microsomes
Format: in vitro ADME, cynomolgus monkey
Description: The metabolic stability of test compounds was examined in CD-1 mouse, Sprague Dawley rat, Beagle dog, cynomolgus monkey, and human liver microsomes. Test compound (final concentration 1 μM) was mixed with diluted liver microsomes from each of the 5 species and a small aliquot was taken at 0, 5, 10, 20, 30, and 60 minutes for LC/MS/MS analysis. Intrinsic clearance and half-life were calculated.
Write the value in min as a bare number.

Use these answered entries as a reference point.
- Structure Smiles: "CNC(=NC#N)NC[C@]12CCC(C)(C)C[C@H]1[C@H]1C(=O)C=C3[C@@]4(C)C=C(C#N)C(=O)C(C)(C)[C@@H]4CC[C@@]3(C)[C@]1(C)CC2"
  Measured Value: 12
- Structure Smiles: "CC1(C)C(=O)C(C#N)=C[C@]2(C)C3=CC(=O)[C@@H]4[C@@H]5C[C@@](C)(c6nnc(C(N)=O)o6)CC[C@]5(C)CC[C@@]4(C)[C@]3(C)CC[C@@H]12"
  Measured Value: 6.4

Pending compound:
Lab book: half-life at 1 μM of CC1(C)C(=O)C(C#N)=C[C@]2(C)C3=CC(=O)[C@@H]4[C@@H]5C[C@@](C)(Cc6nnco6)CC[C@]5(C)CC[C@@]4(C)[C@]3(C)CC[C@@H]12 noted as 3.1

====

Assay: Pharmacokinetic studies in Sprague Dawley rats (oral gavage and IV)
Assay type: in vivo
Details: rat, IV (1 mg/kg), male SD rats, plasma
Lab note: anything with clearance below 60 mL/min/kg is marked MET; values at 60 mL/min/kg or higher are marked NOT MET.

Consider the following illustrative entries.
- Molecule: "CC1(C)C(=O)C(C#N)=C[C@]2(C)C3=CC(=O)[C@@H]4[C@@H]5C[C@@](C)(N6C(=O)CCC6=O)CC[C@]5(C)CC[C@@]4(C)[C@]3(C)CC[C@@H]12"
  Class: "NOT MET"
- Molecule: "CC1(C)C(=O)C(C#N)=C[C@]2(C)C3=CC(=O)[C@@H]4[C@@H]5C[C@@](C)(N6CCOC6=O)CC[C@]5(C)CC[C@@]4(C)[C@]3(C)CC[C@@H]12"
  Class: "NOT MET"
- Molecule: "CC1(C)C(=O)C(C#N)=C[C@]2(C)C3=CC(=O)[C@@H]4[C@@H]5C[C@@](C)(c6nnco6)CC[C@]5(C)CC[C@@]4(C)[C@]3(C)CC[C@@H]12"
  Class: "MET"
- Molecule: "Cc1noc([C@@]2(C)CC[C@]3(C)CC[C@]4(C)[C@H](C(=O)C=C5[C@@]6(C)C=C(C#N)C(=O)C(C)(C)[C@@H]6CC[C@]54C)[C@@H]3C2)n1"
  Class: "MET"

As a next step, examine the molecule that follows.
Here's an entry: COC(=O)[C@]12CCC(C)(C)C[C@H]1[C@H]1C(=O)C=C3[C@@]4(C)C=C(C#N)C(=O)C(C)(C)[C@@H]4CC[C@@]3(C)[C@]1(C)CC2 [Control, reference compound] . Is its clearance below 60 mL/min/kg? MET

====

Measured half-life at 1 μM accompanies every entry in the list below.
Experiment: Metabolic stability in monkey liver microsomes
Format: in vitro ADME, cynomolgus monkey
Write the value in min as a bare number.

- Structure Smiles: "CC1(C)C(=O)C(C#N)=C[C@]2(C)C3=CC(=O)[C@@H]4[C@@H]5C[C@@](C)(N6CC(O)C6)CC[C@]5(C)CC[C@@]4(C)[C@]3(C)CC[C@@H]12"
  Attribute Measured: "half-life at 1 μM"
  Measured Value: 2.5
- Structure Smiles: "Cc1nnc([C@@]2(C)CC[C@]3(C)CC[C@]4(C)[C@H](C(=O)C=C5[C@@]6(C)C=C(C#N)C(=O)C(C)(C)[C@@H]6CC[C@]54C)[C@@H]3C2)o1"
  Attribute Measured: "half-life at 1 μM"
  Measured Value: 7

Pending compound:
Lab book: half-life at 1 μM of CC1(C)C(=O)C(C#N)=C[C@]2(C)C3=CC(=O)[C@@H]4[C@@H]5C[C@@](C)(c6nnco6)CC[C@]5(C)CC[C@@]4(C)[C@]3(C)CC[C@@H]12 noted as 6.9

====

Experiment: Pharmacokinetic studies in Sprague Dawley rats (oral gavage and IV)
Format: in vivo
Conditions: rat, IV (1 mg/kg), male SD rats, plasma
Attribute Measured: C0 (ng/mL)
Write the value in ng/mL as a bare number.

Use these answered entries as a reference point.
- Compound: "COC(=O)[C@]12CCC(C)(C)C[C@H]1[C@H]1C(=O)C=C3[C@@]4(C)C=C(C#N)C(=O)C(C)(C)[C@@H]4CC[C@@]3(C)[C@]1(C)CC2 [Control, reference compound]"
  C0, ng/mL: 365
- Compound: "CC1(C)C(=O)C(C#N)=C[C@]2(C)C3=CC(=O)[C@@H]4[C@@H]5C[C@@](C)(c6nnc(C(=O)NC7CC7)o6)CC[C@]5(C)CC[C@@]4(C)[C@]3(C)CC[C@@H]12"
  C0, ng/mL: 703
- Compound: "CC1(C)C(=O)C(C#N)=C[C@]2(C)C3=CC(=O)[C@@H]4[C@@H]5C[C@@](C)(N6CCOC6=O)CC[C@]5(C)CC[C@@]4(C)[C@]3(C)CC[C@@H]12"
  C0, ng/mL: 355

Lab book: C0 of CC1(C)C(=O)C(C#N)=C[C@]2(C)C3=CC(=O)[C@@H]4[C@@H]5C[C@@](C)(c6nnco6)CC[C@]5(C)CC[C@@]4(C)[C@]3(C)CC[C@@H]12 noted as 427

Lab book: C0 of CC1(C)C(=O)C(C#N)=C[C@]2(C)C3=CC(=O)[C@@H]4[C@@H]5C[C@@](C)(c6nnc(C(N)=O)o6)CC[C@]5(C)CC[C@@]4(C)[C@]3(C)CC[C@@H]12 noted as 1300
